These entries and their values trace back to patent US20120077957A1.

Target: human MC4-R (Homo sapiens)
Construct: expressed in transfected cells; host or cells: HEK293 T-REx (tetracycline-regulated, Invitrogen); cell line from Palatin Technologies with license from the University of Michigan
Sequence (P32245 whole entry): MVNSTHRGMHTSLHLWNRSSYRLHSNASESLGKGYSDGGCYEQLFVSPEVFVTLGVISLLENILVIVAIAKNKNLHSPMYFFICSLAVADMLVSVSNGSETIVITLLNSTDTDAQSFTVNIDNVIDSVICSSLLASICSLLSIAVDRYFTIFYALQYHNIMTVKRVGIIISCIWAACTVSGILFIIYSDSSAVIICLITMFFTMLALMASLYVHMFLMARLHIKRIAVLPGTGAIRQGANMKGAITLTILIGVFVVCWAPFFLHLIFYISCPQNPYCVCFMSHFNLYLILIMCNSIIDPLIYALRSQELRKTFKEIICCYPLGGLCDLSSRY
Experiment: cAMP functional assay in HEK-293 T-REx cells expressing human MC4-R, induced with doxycycline 0.1 ng/mL (low density)
Type: cell-based
Conditions: human MC4-R cAMP assay, doxycycline 0.1 ng/mL; averages of all comparable assays; read-out: Ec50
Description: A HEK293 cell line transfected with human MC4-R (from Palatin Technologies, US, with license from the University of Michigan) was used. The human MC4-R was introduced to HEK293 by using the T-REx™ System, Invitrogen. The T-REx™ System employs a tetracycline-regulated mammalian expression system that uses regulatory elements from the E. coli Tn10-encoded tetracycline (Tet) resistance operon. […] Cells were then counted and volume was adjusted to 5×10^4 cells per 200 μL. […]
Bridge positions count the residues as written; N and C are the ends. Square brackets hold non-standard residues; d marks the D form. Peptide text beside a SMILES is read from it. Orn = NCCC[C@H](N)C(=O)O
Give measured pEC50 for each item. Keep answers brief.
In textbook form, pEC50 equals minus log to base ten of the concentration in mol/L.

Data request: # input compound: CC(=O)N[C@@H](CCCNC(=N)N)C(=O)N[C@H]1CC(=O)NCCCC[C@@H](C(N)=O)NC(=O)[C@H](Cc2c[nH]c3ccccc23)NC(=O)[C@H](CCCNC(=N)N)NC(=O)[C@@H](Cc2ccccc2)NC(=O)[C@H](CCCCN)NC1=O [reference compound] (Ac-RDK[dF]RWK-NH2; lactam 2-7) ; wanted: its pEC50
Data returned: 8.10

Data request: # input compound: CC(=O)N[C@@H](CCCNC(=N)N)C(=O)N[C@H]1CCCNC(=O)CC[C@@H](C(N)=O)NC(=O)[C@H](Cc2c[nH]c3ccccc23)NC(=O)[C@H](CCCNC(=N)N)NC(=O)[C@@H](Cc2ccccc2)NC(=O)[C@H](C)NC1=O [No. 41] (Ac-R[Orn]A[dF]RWE-NH2; lactam 2-7) ; wanted: its pEC50
Data returned: 8.15

Data request: # input compound: CC(=O)N[C@@H](CCCNC(=N)N)C(=O)N[C@H]1CCCNC(=O)CC[C@@H](C(N)=O)NC(=O)[C@H](Cc2c[nH]c3ccccc23)NC(=O)[C@H](CCCNC(=N)N)NC(=O)[C@@H](Cc2ccccc2)NC(=O)[C@@H]2CCCN2C1=O [No. 47] (Ac-R[Orn]P[dF]RWE-NH2; lactam 2-7) ; wanted: its pEC50
Data returned: 8.22

Data request: # input compound: CC(=O)N[C@@H](CCCNC(=N)N)C(=O)N[C@H]1CC(=O)NCCCC[C@@H](C(=O)NC2CC2)NC(=O)[C@H](Cc2c[nH]c3ccccc23)NC(=O)[C@H](CCCNC(=N)N)NC(=O)[C@@H](Cc2ccccc2)NC(=O)[C@H](CCC(N)=O)NC1=O [reference compound] ; wanted: its pEC50
Data returned: 8.05

---

Target: human MC4-R (Homo sapiens)
Construct: expressed in transfected cells; host or cells: HEK293 T-REx (tetracycline-regulated, Invitrogen); cell line from Palatin Technologies with license from the University of Michigan
Assay: cAMP functional assay in HEK-293 T-REx cells expressing human MC4-R, induced with doxycycline 0.1 ng/mL (low density)
Assay type: cell-based
Conditions: human MC4-R cAMP assay, doxycycline 0.1 ng/mL; averages of all comparable assays; read-out: Ec50
Bridge positions count the residues as written; N and C are the ends. Square brackets hold non-standard residues; d marks the D form. Peptide text beside a SMILES is read from it. Orn = NCCC[C@H](N)C(=O)O
RECORDED_ENDPOINT: EC50 (nM)
Give the value, in units of nM, as a plain number.

Data request: # input compound: CC(=O)N[C@@H](CCCNC(=N)N)C(=O)N[C@H]1CCC(=O)NCCC[C@@H](C(=O)O)NC(=O)[C@H](Cc2c[nH]c3ccccc23)NC(=O)[C@H](CCCNC(=N)N)NC(=O)[C@@H](Cc2ccccc2)NC(=O)[C@H](Cc2c[nH]cn2)NC1=O [No. 3] (Ac-REH[dF]RW[Orn]-OH; lactam 2-7) ; wanted: its EC50
Data returned: 0.7

Data request: # input compound: `CC(=O)N[C@@H](CCCNC(=N)N)C(=O)N[C@H]1CCC(=O)NCCC[C@@H](C(=O)NC2CC2)NC(=O)[C@H](Cc2c[nH]c3ccccc23)NC(=O)[C@H](CCCNC(=N)N)NC(=O)[C@@H](Cc2ccccc2)NC(=O)[C@H](CCC(N)=O)NC1=O` ; wanted: its EC50
Data returned: 1

Data request: # input compound: `CC(=O)N[C@@H](CCCNC(=N)N)C(=O)N[C@H]1CCC(=O)NCCC[C@@H](C(=O)O)NC(=O)[C@H](Cc2c[nH]c3ccccc23)NC(=O)[C@H](CCCNC(=N)N)NC(=O)[C@@H](Cc2ccccc2)NC(=O)[C@H](CCCNC(=N)N)NC1=O` ; wanted: its EC50
Data returned: 2

Data request: # input compound: `CCCC[C@H](NC(C)=O)C(=O)N[C@H]1CCCNC(=O)CC[C@@H](C(N)=O)NC(=O)[C@H](Cc2c[nH]c3ccccc23)NC(=O)[C@H](CCCNC(=N)N)NC(=O)[C@@H](Cc2ccccc2)NC(=O)[C@H](Cc2c[nH]cn2)NC1=O` ; wanted: its EC50
Data returned: 0.2

Data request: # input compound: CC(=O)N[C@@H](CCCNC(=N)N)C(=O)N[C@H]1CC(=O)NCCCC[C@@H](C(=O)O)NC(=O)[C@H](Cc2c[nH]c3ccccc23)NC(=O)[C@H](CCCNC(=N)N)NC(=O)[C@@H](Cc2ccccc2)NC(=O)[C@H](Cc2c[nH]cn2)NC1=O [reference compound] ; wanted: its EC50
Data returned: 4

Data request: # input compound: `CC(=O)N[C@@H](CCCNC(=N)N)C(=O)N[C@H]1CCC(=O)NCCC[C@@H](C(N)=O)NC(=O)[C@H](Cc2c[nH]c3ccccc23)NC(=O)[C@H](CCCNC(=N)N)NC(=O)[C@@H](Cc2ccccc2)NC(=O)[C@H](CCS(C)(=O)=O)NC1=O` ; wanted: its EC50
Data returned: 5

Data request: # input compound: `CC(=O)N[C@@H](CCCNC(=N)N)C(=O)N[C@H]1CCC(=O)NCCC[C@@H](C(N)=O)NC(=O)[C@H](Cc2c[nH]c3ccccc23)NC(=O)[C@H](CCCNC(=N)N)NC(=O)[C@@H](Cc2ccccc2)NC(=O)[C@@H]2C[C@@H](N)CN2C1=O` ; wanted: its EC50
Data returned: 8

Data request: # input compound: `CC(=O)NCCC[C@@H]1NC(=O)[C@@H](NC(=O)[C@H](CCCNC(=N)N)NC(C)=O)CCC(=O)NCCC[C@@H](C(N)=O)NC(=O)[C@H](Cc2c[nH]c3ccccc23)NC(=O)[C@H](CCCNC(=N)N)NC(=O)[C@@H](Cc2ccccc2)NC1=O` ; wanted: its EC50
Data returned: 3

Data request: # input compound: CC(=O)N[C@@H](CCCNC(=N)N)C(=O)N[C@H]1CC(=O)NCCCC[C@@H](C(=O)O)NC(=O)[C@H](Cc2c[nH]c3ccccc23)NC(=O)[C@H](CCCNC(=N)N)NC(=O)[C@@H](Cc2ccccc2)NC(=O)[C@H](CCCN)NC1=O [reference compound] ; wanted: its EC50
Data returned: 12
